Experiment: Equilibrium solubility in pH 5 acetate buffer after 24 hrs by HPLC method
Format: physicochemical
ASSAY METRIC: solubility thermodynamic at 24 h

// query Returns the measured solubility thermodynamic at 24 h for the input molecule. Input: C[C@@H]1CN(c2cc(-c3n[nH]c4ccc(OC5(C)CC5)cc34)ncn2)C[C@H](C)O1 [MLi-2]
// result 14 to 38 µg/mL

----------
Target: Leucine-rich repeat serine/threonine-protein kinase 2 (Homo sapiens, UniProt Q5S007, G2019S)
Sequence (Q5S007 whole entry G2019S, the tested form may be a part): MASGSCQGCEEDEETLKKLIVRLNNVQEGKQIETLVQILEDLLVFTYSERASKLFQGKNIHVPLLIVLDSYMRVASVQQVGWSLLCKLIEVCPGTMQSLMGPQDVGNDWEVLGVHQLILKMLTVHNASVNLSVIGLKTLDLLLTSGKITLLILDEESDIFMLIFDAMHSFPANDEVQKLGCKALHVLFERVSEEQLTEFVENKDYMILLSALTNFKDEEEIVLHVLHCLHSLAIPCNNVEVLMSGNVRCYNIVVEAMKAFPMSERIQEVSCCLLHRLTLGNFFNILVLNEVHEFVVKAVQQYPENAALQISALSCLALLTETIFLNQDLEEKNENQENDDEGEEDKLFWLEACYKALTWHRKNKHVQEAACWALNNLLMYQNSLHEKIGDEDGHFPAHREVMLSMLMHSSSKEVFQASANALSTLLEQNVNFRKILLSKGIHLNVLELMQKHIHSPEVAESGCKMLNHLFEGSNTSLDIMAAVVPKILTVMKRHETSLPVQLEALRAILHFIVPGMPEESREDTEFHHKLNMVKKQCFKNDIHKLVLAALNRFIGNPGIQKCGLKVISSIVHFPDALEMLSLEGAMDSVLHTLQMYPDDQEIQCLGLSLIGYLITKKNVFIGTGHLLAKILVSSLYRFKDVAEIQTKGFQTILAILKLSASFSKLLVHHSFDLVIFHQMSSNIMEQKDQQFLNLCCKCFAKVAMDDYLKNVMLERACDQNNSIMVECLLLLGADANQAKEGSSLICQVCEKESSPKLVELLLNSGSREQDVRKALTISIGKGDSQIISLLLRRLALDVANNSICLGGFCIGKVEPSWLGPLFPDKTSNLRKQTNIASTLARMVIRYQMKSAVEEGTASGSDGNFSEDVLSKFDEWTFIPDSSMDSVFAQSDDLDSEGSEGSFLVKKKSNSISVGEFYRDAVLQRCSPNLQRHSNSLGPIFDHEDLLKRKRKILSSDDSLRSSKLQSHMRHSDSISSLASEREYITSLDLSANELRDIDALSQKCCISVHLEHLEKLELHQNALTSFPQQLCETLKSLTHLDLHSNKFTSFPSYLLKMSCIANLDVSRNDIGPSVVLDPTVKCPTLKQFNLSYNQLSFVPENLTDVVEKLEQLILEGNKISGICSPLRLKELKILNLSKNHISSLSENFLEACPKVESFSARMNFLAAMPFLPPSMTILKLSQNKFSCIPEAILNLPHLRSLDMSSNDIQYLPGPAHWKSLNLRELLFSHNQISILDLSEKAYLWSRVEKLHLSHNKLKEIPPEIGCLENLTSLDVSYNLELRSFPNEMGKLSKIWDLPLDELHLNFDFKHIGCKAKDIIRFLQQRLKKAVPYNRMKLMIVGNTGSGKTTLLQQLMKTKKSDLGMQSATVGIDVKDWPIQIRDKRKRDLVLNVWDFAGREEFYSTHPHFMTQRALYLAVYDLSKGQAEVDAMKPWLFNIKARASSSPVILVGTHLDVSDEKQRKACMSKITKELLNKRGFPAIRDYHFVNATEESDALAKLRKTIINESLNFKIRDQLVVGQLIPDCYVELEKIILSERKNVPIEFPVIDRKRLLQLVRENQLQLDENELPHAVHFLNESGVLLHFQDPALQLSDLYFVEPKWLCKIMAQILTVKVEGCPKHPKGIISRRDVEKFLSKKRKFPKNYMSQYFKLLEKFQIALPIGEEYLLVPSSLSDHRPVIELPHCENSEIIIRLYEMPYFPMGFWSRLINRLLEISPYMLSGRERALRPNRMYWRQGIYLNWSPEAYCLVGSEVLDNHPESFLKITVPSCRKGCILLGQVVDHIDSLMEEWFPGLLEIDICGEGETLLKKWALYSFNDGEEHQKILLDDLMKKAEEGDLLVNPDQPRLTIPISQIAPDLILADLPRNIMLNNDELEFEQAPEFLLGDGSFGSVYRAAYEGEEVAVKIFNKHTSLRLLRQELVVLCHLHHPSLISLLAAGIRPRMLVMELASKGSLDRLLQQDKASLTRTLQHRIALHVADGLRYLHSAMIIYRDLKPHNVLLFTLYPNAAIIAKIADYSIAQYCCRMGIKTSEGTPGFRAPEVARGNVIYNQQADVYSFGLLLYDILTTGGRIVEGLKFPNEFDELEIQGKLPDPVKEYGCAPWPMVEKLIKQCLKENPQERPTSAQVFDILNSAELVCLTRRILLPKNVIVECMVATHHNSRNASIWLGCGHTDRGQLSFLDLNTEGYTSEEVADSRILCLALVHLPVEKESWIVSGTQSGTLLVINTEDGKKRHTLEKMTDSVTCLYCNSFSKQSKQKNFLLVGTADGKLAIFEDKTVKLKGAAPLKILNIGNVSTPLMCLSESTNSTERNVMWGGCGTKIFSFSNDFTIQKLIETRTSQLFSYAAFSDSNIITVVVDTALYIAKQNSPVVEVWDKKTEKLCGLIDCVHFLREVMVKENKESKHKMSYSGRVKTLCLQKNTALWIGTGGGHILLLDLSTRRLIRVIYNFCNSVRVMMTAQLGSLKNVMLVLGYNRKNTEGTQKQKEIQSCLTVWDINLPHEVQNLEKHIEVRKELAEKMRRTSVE
Experiment: Inhibition of recombinant human GST-tagged LRRK2 (970 to 2527 residues) G2019S mutant expressed in baculovirus using fluorescein-ERM as substrate preincubated for 30 mins followed by substrate addition measured after 1 hr in presence of 5 mM ATP by TR-FRET assay
Below, each entry is listed with its recorded IC50.
State the answer as a number, implicitly in nM.

Sample records with IC50:
- SMILES REPR: "CC(C)Oc1ccc2[nH]nc(-c3ccnc(N4C[C@@H](F)[C@H](F)C4)c3)c2c1"
  UNITS TEXT: "nM"
  IC50: 128
- SMILES REPR: "CC(C)Oc1ccc2[nH]nc(-c3ccnc(N4CCN(S(C)(=O)=O)CC4)c3)c2c1"
  UNITS TEXT: "nM"
  IC50: 14
- SMILES REPR: "C[C@H]1CN(c2cc(-c3n[nH]c4ccc(OC5(C)CC5)cc34)ncn2)CCO1"
  UNITS TEXT: "nM"
  IC50: 76
- SMILES REPR: "C[C@@H]1CN(c2cc(-c3n[nH]c4ccc(OC5(C)CC5)cc34)ncn2)CCO1"
  UNITS TEXT: "nM"
  IC50: 13
- SMILES REPR: "CC(C)Oc1ccc2[nH]nc(-c3ccnc(N4CCN(C)C(=O)C4)c3)c2c1"
  UNITS TEXT: "nM"
  IC50: 91

// query Entry `CC(C)Oc1ccc2[nH]nc(-c3ccnc(N4CCC(n5cnnc5)CC4)c3)c2c1` : reported IC50 = ?
// result 69
